# Tested on: SK-MEL-5 melanoma
# test-summary: NCI-60 one-dose screen, 48 h
# condition-set: 10 µM unless noted
The panel holds about 83,000 compounds, 20% with a hit somewhere; the sample as a whole holds those more often. Active and inactive are the calls of the source. Rule for the calls: active = growth percent below 10; inactive = the rest.
Outcomes: 1 (active), 0 (inactive)

[
  {
    "compound": "C1=C(N2CCCC2)CCC1",
    "assigned-category": 0
  },
  {
    "compound": "Oc1c(Cl)cc(Cl)c2ccc(Cn3cc(-c4cc(F)cc(F)c4)nn3)nc12",
    "assigned-category": 0
  },
  {
    "compound": "Cc1ccc(-c2cc(-c3ccc(Cl)cc3)nc(NC(=O)c3cccnc3)n2)cc1",
    "assigned-category": 0
  },
  {
    "compound": "Cn1cc(-c2csc(-c3c[nH]c4ccc(Br)cc34)n2)c2cnccc21",
    "assigned-category": 1
  },
  {
    "compound": "COC(=O)c1c2c(c(C)[n+]([O-])c1C)C(=O)C(NCc1ccc(Cl)cc1)=CC2=O",
    "assigned-category": 0
  },
  {
    "compound": "CN(Cc1ccc(C(F)(F)F)cc1)CC(O)C(=O)Nc1ccc(Cl)cc1 (centres undefined)",
    "assigned-category": 1
  },
  {
    "compound": "COc1cc(OC)cc(C2=C3CC[C@@H]4[C@H](CC[C@]5(C)C(=O)CC[C@@H]45)C3=CC3C(O)c4cccnc4N4C(=O)COC234)c1 (some centres undefined)",
    "assigned-category": 0
  },
  {
    "compound": "C[C@]12C=CC(=O)C=C1CCC1C2[C@@H](O)C[C@@]2(C)C1CC[C@]2(O)C(=O)COC(=O)CCC(=O)O (some centres undefined)",
    "assigned-category": 0
  },
  {
    "compound": "Cc1ccc(-c2nc3nc(-c4ccc(F)cc4)nc(N4CCNCC4)c3o2)cc1",
    "assigned-category": 0
  },
  {
    "compound": "Cc1ccc(-n2c(=S)[nH]c3sc4c(c3c2=O)CCC(=O)C4)cc1",
    "assigned-category": 0
  },
  {
    "compound": "O=C1c2cccnc2C(=O)c2c1c(C(=O)NCCCN1CCCCC1)c1ccccn21",
    "assigned-category": 1
  },
  {
    "compound": "CCN1CCN(Cc2cn(CC(=O)Nc3ccc4c(ccn4Cc4ccccc4)c3)nn2)CC1",
    "assigned-category": 0
  },
  {
    "compound": "CCc1ccc(C(=O)/C=C/C23c4ccccc4C(c4ccccc42)C2C(=O)NC(=O)C23)cc1 (centres undefined)",
    "assigned-category": 0
  },
  {
    "compound": "C=C(C)[C@@H]1CC[C@]2(C)[C@H](CC=C3[C@@H]4[C@H](C)[C@@H](C)CC[C@]4(CO)CC[C@]32C)[C@@]1(C)CCCN",
    "assigned-category": 0
  },
  {
    "compound": "CN1C(=O)/C(=C/c2cn(-c3ccccc3)nc2-c2ccccc2)SC1=S",
    "assigned-category": 0
  },
  {
    "compound": "CC(=O)Cc1nsc(NC(=O)c2cc(-c3cc(Cl)cc(Cl)c3)oc2C)n1",
    "assigned-category": 0
  },
  {
    "compound": "CC(=O)N(N=Nc1ccccc1)c1cccc2ccccc12",
    "assigned-category": 0
  },
  {
    "compound": "Cc1nc2sc(C(=O)Nc3cccc(Cl)c3C)c(N)c2cc1C(=O)c1ccccc1",
    "assigned-category": 1
  },
  {
    "compound": "O=C(CSc1nc2ccc([N+](=O)[O-])cc2[nH]1)Nc1cccc(C(F)(F)F)c1",
    "assigned-category": 1
  }
]
